# EXPERIMENTAL SYSTEM: T1, PDLoneECDHisCtag (human, UniProt Q9NZQ7 19-238)
# T1 construct: Expressed in HEK-293F cells; theoretical molecular weight 29 kDa; also called recombinant human PD-L1 ECD; human PD-L1 (BLI); not shown: C-terminal His-tag; C-tag
# T1 sequence (Q9NZQ7 19-238, form in doubt): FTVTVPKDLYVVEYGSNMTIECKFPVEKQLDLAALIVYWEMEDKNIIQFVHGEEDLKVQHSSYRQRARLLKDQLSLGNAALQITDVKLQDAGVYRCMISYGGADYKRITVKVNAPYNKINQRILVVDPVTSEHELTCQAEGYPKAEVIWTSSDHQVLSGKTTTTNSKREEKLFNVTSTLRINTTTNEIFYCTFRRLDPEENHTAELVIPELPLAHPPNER
# PROTOCOL TEXT: BLI cross-block, second antibody on PDLoneECDHisCtag held by immobilised 321; bold = blocking
This listing pairs binders with measured association response of the second antibody.
EXPERIMENTAL READOUT: association response of the second antibody (nm)

• IgG1-321-FEAR (antibody, V domains shown) VH: EVQLVESGGGLVQPGGSLRLSCAASGFTFSSYWMSWVRQAPGKGLEWVANIKQDGNEKYYVDSVKGRFTISRDNAKNSLYVQMNSLRAEDTAVYYCARDLYYGSGTYPPFDYWGQGTLVTVSS VL: DIQMTQSPSTLSASVGDRVTITCRASQSISSWLAWYLQKPGKAPKLLIYKASSLESGVPSRFSGSGSGTEFTLTISSLQPDDFATYYCQQYHSSSYTFGQGTKLEIK = 0
• IgG1-421-LC91S-FEAR (antibody, V domains shown) VH: EVQLVESGGGLVQPGRSLRLSCAASGFTFDDYAMHWVRQGPGKGLEWVSGIRWNSGSMHYADSVKGRFTISRDNAKSSLYLQMNSLRAEDTALYYCARAPWYSGAWHPDYWGQGTLVTVSS VL: QSALTQPRSVSGSPGQSVTISCTGTSSDVGTYNYVSWYQQHPGKAPKLMIYDVIKRPSGVPDRFSGSKSGNTASLTLSGLQAEDEADYYCSSYAGTYTLLFGGGTKLTVL = 0
